This section presents compounds with their documented IC50 values.
- MEASUREMENT TARGET: p110α Type Ia human PI3K (Homo sapiens)
- Construct: full length DNA of each of the p110α, p110β and p110δ Type Ia human PI3K p110 isoforms; 6-His
- Sequence (P42336 whole entry, canonical isoform): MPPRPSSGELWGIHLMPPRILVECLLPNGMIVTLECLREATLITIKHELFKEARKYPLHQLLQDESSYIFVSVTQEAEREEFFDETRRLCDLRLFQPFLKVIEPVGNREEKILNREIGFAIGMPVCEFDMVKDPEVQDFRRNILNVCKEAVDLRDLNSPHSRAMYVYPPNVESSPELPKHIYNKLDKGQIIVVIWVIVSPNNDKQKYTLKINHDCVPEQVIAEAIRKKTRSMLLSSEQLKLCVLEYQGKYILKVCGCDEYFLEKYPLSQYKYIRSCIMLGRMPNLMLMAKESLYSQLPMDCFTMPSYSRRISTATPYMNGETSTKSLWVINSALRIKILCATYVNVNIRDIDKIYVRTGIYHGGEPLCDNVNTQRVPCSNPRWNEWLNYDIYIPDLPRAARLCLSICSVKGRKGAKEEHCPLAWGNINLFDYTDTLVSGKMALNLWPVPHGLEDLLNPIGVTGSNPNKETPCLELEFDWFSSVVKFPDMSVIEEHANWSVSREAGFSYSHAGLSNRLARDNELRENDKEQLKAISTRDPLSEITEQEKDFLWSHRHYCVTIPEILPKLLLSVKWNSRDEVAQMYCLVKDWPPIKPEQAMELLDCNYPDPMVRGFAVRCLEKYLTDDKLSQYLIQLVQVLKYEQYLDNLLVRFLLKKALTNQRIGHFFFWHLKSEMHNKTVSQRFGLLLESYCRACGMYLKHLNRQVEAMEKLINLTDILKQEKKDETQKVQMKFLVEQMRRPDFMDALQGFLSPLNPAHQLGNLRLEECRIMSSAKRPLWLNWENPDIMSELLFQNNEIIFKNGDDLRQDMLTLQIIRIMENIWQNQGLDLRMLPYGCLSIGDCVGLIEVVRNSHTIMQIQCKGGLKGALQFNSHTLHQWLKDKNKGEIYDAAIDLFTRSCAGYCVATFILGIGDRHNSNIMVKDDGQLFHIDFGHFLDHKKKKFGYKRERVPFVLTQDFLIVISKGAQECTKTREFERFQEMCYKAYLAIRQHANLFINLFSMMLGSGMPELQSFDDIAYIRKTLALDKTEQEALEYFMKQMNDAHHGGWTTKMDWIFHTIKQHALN
- Sequence (P27986 whole entry partner, canonical isoform): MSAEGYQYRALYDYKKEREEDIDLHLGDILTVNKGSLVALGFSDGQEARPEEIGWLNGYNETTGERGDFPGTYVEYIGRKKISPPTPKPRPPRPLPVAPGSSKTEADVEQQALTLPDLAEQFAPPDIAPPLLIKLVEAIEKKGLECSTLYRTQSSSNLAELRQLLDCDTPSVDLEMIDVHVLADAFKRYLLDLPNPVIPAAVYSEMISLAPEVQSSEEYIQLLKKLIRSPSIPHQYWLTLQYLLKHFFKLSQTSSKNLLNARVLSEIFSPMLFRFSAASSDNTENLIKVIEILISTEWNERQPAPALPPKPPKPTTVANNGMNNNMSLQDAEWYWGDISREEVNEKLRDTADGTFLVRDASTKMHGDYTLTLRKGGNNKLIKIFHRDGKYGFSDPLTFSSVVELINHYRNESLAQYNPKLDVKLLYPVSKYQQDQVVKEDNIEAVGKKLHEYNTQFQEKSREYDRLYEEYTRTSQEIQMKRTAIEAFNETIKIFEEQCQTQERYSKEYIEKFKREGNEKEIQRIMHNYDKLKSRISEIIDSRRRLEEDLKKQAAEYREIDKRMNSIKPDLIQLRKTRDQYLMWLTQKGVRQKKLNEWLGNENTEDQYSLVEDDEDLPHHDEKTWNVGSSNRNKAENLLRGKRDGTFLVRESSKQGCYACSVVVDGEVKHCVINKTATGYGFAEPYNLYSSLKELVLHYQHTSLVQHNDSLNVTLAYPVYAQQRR
- ASSAY INFO: In vitro enzyme assay (AlphaScreen), Test (a)
- CONDITIONS: recombinant enzyme, PI(4,5)P2 substrate, ATP 4 μM, read-out: IC50 versus p110α Type Ia human PI3K
- Source text: (a) In Vitro Enzyme Assay The assay used AlphaScreen technology (Gray et al., Analytical Biochemistry, 2003, 313: 234-245) to determine the ability of test compounds to inhibit phosphorylation by recombinant Type I PI3K enzymes of the lipid PI(4,5)P2. DNA fragments encoding human PI3K catalytic and regulatory subunits were isolated from cDNA libraries using standard molecular biology and PCR cloning techniques. The selected DNA fragments were used to generate baculovirus expression vectors. […]

Before answering, review these 2 worked examples.
>>> result("O=C(Nc1cccc(-c2cc(N3CCOCC3)nc(-c3cccc(CO)c3)n2)c1)C1CCNCC1")
"~100 nM"
>>> result("O=C(Nc1cccc(-c2cc(N3CCOCC3)nc(-c3cccc(O)c3)n2)c1)C1CCCNC1 (stereo not drawn)")
"~100 nM"

Read the next record carefully.
Reported IC50 of O=C(Nc1cccc(-c2cc(N3CCOCC3)nc(-c3cccc(CO)c3)n2)c1)N1CCNCC1 : ~300 nM
